- studySystem: UniProt P09958
- Sequence (P09958 108-794): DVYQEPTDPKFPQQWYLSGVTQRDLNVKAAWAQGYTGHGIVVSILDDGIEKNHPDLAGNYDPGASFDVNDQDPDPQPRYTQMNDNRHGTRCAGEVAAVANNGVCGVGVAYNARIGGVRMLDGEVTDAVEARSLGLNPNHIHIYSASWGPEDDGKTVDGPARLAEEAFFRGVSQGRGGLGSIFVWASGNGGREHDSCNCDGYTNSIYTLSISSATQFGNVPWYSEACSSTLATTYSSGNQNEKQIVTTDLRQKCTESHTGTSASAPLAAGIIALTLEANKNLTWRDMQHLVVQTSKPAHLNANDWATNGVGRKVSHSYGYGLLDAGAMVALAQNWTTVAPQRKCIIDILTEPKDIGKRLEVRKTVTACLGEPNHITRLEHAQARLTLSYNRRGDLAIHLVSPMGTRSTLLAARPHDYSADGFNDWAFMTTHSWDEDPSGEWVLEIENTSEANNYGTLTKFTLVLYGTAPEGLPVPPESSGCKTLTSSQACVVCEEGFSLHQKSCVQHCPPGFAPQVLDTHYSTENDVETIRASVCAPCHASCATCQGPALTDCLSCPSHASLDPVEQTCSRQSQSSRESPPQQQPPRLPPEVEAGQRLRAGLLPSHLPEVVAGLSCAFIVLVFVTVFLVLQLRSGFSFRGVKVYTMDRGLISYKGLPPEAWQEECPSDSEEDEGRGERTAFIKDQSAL
- protocolSummary: fluorogenic furin protease assay (BPS Bioscience kit), IC50 in triplicate
- Type: biochemical
- experimentalConditions: read-out: Biological Activity ^2 [IC50; μM] ^3 or % Inhibition ^4

- compound: "COc1ccccc1/C=C1/SC(=S)N(CCC(=O)Nc2ccc(S(=O)(=O)Nc3nccs3)cc2)C1=O [compound 4]"
  studySystem: "UniProt P09958"
  unitLabel: "µM"
  IC50: 17.6
